molecular target: Substance-P receptor (Homo sapiens)
Sequence (P25103 whole entry): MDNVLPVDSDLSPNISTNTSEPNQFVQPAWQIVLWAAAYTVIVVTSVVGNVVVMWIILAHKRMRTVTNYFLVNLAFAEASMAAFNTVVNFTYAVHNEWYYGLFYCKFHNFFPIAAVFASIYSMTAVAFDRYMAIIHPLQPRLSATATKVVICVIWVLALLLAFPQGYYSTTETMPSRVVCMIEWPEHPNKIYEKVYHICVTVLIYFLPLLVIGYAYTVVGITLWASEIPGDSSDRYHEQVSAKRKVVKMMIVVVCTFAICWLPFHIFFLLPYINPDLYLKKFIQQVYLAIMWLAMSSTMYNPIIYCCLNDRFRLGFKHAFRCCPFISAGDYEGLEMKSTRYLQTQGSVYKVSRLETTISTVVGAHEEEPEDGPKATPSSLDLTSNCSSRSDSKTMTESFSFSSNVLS
Listed here: items and their measured log10 Ki.
Heads up, the numbers here are log10 of Ki in nM units.

>  <Chemical structure>
CN(Cc1ccccc1)C(=O)[C@H](Cc1ccc2ccccc2c1)NC(=O)[C@@H]1CCCN1C(=O)Nc1ccccc1CO

>  <log10 Ki>
0.23

$$$$
>  <Chemical structure>
CN(Cc1ccc2ccccc2c1)C(=O)[C@H](Cc1ccccc1)NC(=O)[C@@H]1CCCN1/C(S)=N/Cc1ccccc1Cl

>  <log10 Ki>
1.56

$$$$
>  <Chemical structure>
CN(Cc1cccc2ccccc12)C(=O)[C@H](Cc1ccccc1)NC(=O)[C@@H]1CCCN1C(=S)NCc1ccccc1Cl

>  <log10 Ki>
1.23

$$$$
>  <Chemical structure>
CN(Cc1ccccc1)C(=O)[C@H](Cc1ccc2ccccc2c1)NC(=O)[C@@H]1CCCN1C(=O)Nc1ccccc1C#N

>  <log10 Ki>
0.04

$$$$

# input Please look up its log10 Ki: CN(Cc1ccccc1)C(=O)[C@H](Cc1ccc2ccccc2c1)NC(=O)[C@@H]1CCCN1C(=O)Nc1cccnc1
# output 0.83

# input Cool, now CN(Cc1ccccc1)C(=O)[C@H](Cc1ccc2ccccc2c1)NC(=O)[C@@H]1CCCN1C(=O)Nc1ccc(C#N)cc1
# output 0.04

# input Next compound up: CN(Cc1ccccc1)C(=O)[C@H](Cc1ccc2ccccc2c1)N(C)C(=O)[C@@H]1CCCN1C(=S)NCc1ccccc1Cl
# output 0.23
